Experiment: Antifouling assay: toxicity (mortality) to cypris larvae, 48 h exposure
Conditions: Amphibalanus amphitrite (barnacle, cypris larvae), in vivo, 50% mortality of cyprids, highest concentration 10.0 μg/mL, read-out: LC50 (50% lethal concentration)
Starred links: 1 amine or outer side, 2 acyl side, 3 side chain; linkers in the order of their positions; H or OH if unused. Non-standard residues stand in square brackets, D forms with d. Residues, ends and D or L forms follow the SMILES beside them. X3 = CC(=O)Oc1ccc(C[C@@H](C)[C@H](N[*:1])C(=O)[*:2])cc1; X4 = CC(C)[C@@H](N[*:1])[C@@H](C)C(=O)[*:2]; dNMeV = CN[C@@H](C(=O)O)C(C)C; Hiv = CC(C)[C@H](O)C(=O)O; Lac = C[C@H](O)C(=O)O
propertyMeasured: LC50 at 48 h

Task: GET /values?readout=LC50 at 48 h&item= CC(=O)Oc1ccc(C[C@@H](C)[C@@H]2NC(=O)[C@@H]3CCCN3C(=O)[C@@H](C(C)C)N(C)C(=O)[C@H](C(C)C)OC(=O)[C@@H]3CCCN3C(=O)[C@H](C)OC(=O)[C@H](C)[C@@H](C(C)C)NC(=O)[C@@H]3CCCN3C2=O)cc1 [Compound 24, Dolastatin 16 Acetate] (cyclo([Hiv][dNMeV]P[X3]P[X4][Lac]P))
Result: > 10 mg/L
